These entries and their values trace back to patent US10093653B2.

- Test system: HEK293T cells
- ASSAY DETAILS: Toxicity by Cell-Titer Glo after the FRET assay
- Assay type: cell-based
- CONDITION LABEL: Conc. 62.5 μM
# reported Toxicity (%); entries follow
PROPERTY NAME: Toxicity (%)

Cc1ccc(C(Nc2ccccn2)c2c(C)[nH]c3ccccc23)cc1 (stereo not drawn) ... 90
Cc1[nH]c2ccccc2c1C(Nc1ccccn1)c1cccc(Cl)c1 (stereo not drawn) ... 100
COc1cccc(C(Nc2ccccn2)c2c(C)[nH]c3ccccc23)c1 (stereo not drawn) ... 60
Cc1[nH]c2ccccc2c1C(Nc1ccccn1)c1cccc(Br)c1 (stereo not drawn) ... 100
Cc1[nH]c2ccccc2c1C(Nc1ccccn1)c1ccc(F)cc1 (stereo not drawn) ... 100
COc1ccc(C(Nc2ccccn2)c2c(C)[nH]c3ccccc23)cc1 (stereo not drawn) ... 100

###

- ASSAY DETAILS: in vitro
- CONDITION LABEL: PAMPA
PROPERTY NAME: Papp (×10⁻⁶ cm/s)

Cc1[nH]c2ccccc2c1C(Nc1ccccc1)c1ccc(OCCCO)cc1 (stereo not shown) [Compound 30i] ... 0.148

###

- CONDITION LABEL: 12 h, pH 7.4
Category | rule: reported Solubility within range, see bottom range: < 40 µM; center range: ≥ 40 µM and < 200 µM; top range: ≥ 200 µM

Cc1[nH]c2ccccc2c1C(Nc1ccc(N(C)C)cc1)c1ccccc1Cl (centres unmarked) [Compound 31e] ... bottom range
COc1ccccc1NC(c1ccccc1Cl)c1c(C)[nH]c2ccccc12 (centres unmarked) [Compound 31h] ... center range
Cc1[nH]c2ccccc2c1C(Nc1ccccc1)c1ccccc1Cl (centres unmarked) [Compound 31a] ... bottom range
Cc1[nH]c2ccccc2c1C(Nc1ccccc1)c1ccc2ccccc2c1 (centres unmarked) [Compound 30h] ... center range
Cc1ccc(NC(c2ccccc2Cl)c2c(C)[nH]c3ccccc23)cc1 (centres unmarked) [Compound 31d] ... bottom range
Cc1[nH]c2ccccc2c1C(Nc1ccccc1)c1ccc(Cl)cc1 (centres unmarked) [Compound 30b] ... center range
Cc1[nH]c2ccccc2c1C(Nc1ccccc1)c1ccc(N(C)C)cc1 (centres unmarked) [Compound 30e] ... center range
Cc1[nH]c2ccccc2c1C(Nc1ccccc1)c1ccccc1 (centres unmarked) [Compound 30a] ... top range
Cc1ccc(C(Nc2ccccc2)c2c(C)[nH]c3ccccc23)cc1 (centres unmarked) [Compound 30d] ... center range
COc1ccc(C(Nc2ccccc2)c2c(C)[nH]c3ccccc23)cc1 (centres unmarked) [Compound 30c] ... top range
Cn1cc(C(Nc2ccccc2)c2ccccc2Cl)c2ccccc21 (centres unmarked) [Compound 32a] ... bottom range
